Biological target: human LPA1 (Homo sapiens, UniProt Q92633)
Sequence (Q92633 whole entry): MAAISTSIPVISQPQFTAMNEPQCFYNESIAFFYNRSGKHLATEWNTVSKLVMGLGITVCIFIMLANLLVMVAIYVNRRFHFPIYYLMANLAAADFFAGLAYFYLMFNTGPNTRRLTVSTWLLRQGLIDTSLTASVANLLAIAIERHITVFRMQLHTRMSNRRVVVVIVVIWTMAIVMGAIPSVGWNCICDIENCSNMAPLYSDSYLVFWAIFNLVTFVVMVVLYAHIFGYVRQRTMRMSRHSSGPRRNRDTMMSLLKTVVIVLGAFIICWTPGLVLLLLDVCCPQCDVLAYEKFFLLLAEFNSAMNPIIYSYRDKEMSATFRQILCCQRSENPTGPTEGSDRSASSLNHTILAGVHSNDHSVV
Assay: In vitro functional assay of lysophosphatidic acid receptor 1 activity (calcium flux)
Assay type: cell-based
Details: B103 cells stably expressing human LPA1; Fluo-4 NW calcium flux after lysophosphatidic acid (18:1) at EC80; compounds 100 pM to 10 μM; read-out: LPA1 IC50
Endpoint Name: IC50

// solved cases for IC50 follow
## Task Quote IC50 with test system human LPA1 (Homo sapiens, UniProt Q92633) for Cc1ccc(NC(=O)C2(c3ccccc3C(C)C)CC(CS(C)(=O)=O)C2)c(OC(F)F)n1 (stereo not drawn) [Example 64]
## Result 100 to 1000 nM

## Task Quote IC50 with test system human LPA1 (Homo sapiens, UniProt Q92633) for CC(C)c1ccccc1C1(C(=O)Nc2cnc(Cl)cc2OC2CC2)COC1 [Example 32]
## Result 100 to 1000 nM

## Task Quote IC50 with test system human LPA1 (Homo sapiens, UniProt Q92633) for COc1ccc(NC(=O)C2(c3ccccc3C(C)C)CC(O)(C(F)(F)C(=O)O)C2)c(OC(F)F)n1 (single isomer, unassigned) [Example 54-isomer A]
## Result < 10 nM

## Task Quote IC50 with test system human LPA1 (Homo sapiens, UniProt Q92633) for Cc1ccc(NC(=O)C2(c3ccccc3C(C)C)CC(N(C)C)C2)c(OC(F)F)n1 (stereo not drawn) [Example 39]
## Result 100 to 1000 nM

## Task Quote IC50 with test system human LPA1 (Homo sapiens, UniProt Q92633) for CC(C)c1ccccc1C1(C(=O)Nc2ccc(Br)cc2OC(F)F)COC1 [Example 16]
## Result < 10 nM

Kindly consider the entry below.
## Task Quote IC50 with test system human LPA1 (Homo sapiens, UniProt Q92633) for COc1cc(OC(F)F)c(NC(=O)C2(c3ccccc3C(C)C)CC(=O)N(C)C2)cn1 (stereo not drawn) [Example 5]
## Result > 1000 nM
